molecular target: Histamine H3 receptor (Homo sapiens); assay: Antagonist activity at human histamine H3 receptor expressed in SK-N-MC cells by CRE-mediated beta-galactosidase reporter gene assay administered 10 mins before (R)-alpha-methylhistamine challenge after 6 hrs; format: functional, cell-based
Sequence (Q9Y5N1 whole entry): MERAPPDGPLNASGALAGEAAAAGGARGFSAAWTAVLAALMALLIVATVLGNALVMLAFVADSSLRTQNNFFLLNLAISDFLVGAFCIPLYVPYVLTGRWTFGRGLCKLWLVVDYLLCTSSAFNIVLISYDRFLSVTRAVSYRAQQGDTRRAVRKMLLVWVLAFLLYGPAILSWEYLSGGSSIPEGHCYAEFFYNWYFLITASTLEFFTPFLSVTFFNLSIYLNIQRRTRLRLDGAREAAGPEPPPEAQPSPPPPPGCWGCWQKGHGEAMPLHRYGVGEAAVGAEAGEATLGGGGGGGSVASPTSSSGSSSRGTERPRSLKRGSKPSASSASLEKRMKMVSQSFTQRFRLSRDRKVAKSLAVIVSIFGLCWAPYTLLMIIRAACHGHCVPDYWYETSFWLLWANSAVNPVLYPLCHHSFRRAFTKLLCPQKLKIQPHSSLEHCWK
assay-endpoint: pKb
Would you mind answering with just the numeric figure?

# count of solved cases: 10
> print(dat)
                                    compound                    measurement.target  reading
 1       CCCCCNCc1ccc(-c2ccc(CNCCCCC)cc2)cc1  Histamine H3 receptor (Homo sapiens)     6.51
 2  CC1CC(C)CN(Cc2ccc(-c3ccc(CN4CCCCC4)cc3)cc2)C1 (stereo unspecified)  Histamine H3 receptor (Homo sapiens)     8.48
 3  c1cc(-c2ccc(CCN3CCCCC3)cc2)ccc1CCN1CCCCC1  Histamine H3 receptor (Homo sapiens)      8.5
 4  CCCN(CCC)Cc1ccc(-c2ccc(CN3CCCCC3)cc2)cc1  Histamine H3 receptor (Homo sapiens)     8.18
 5  CC(=O)N1CCN(Cc2ccc(-c3ccc(CN4CCCCC4)cc3)cc2)CC1  Histamine H3 receptor (Homo sapiens)     7.86
 6  c1cc(-c2ccc(CN3CCCCC3)cc2)ccc1CNC1CCCCC1  Histamine H3 receptor (Homo sapiens)     8.03
 7  CCCN(CCC)Cc1ccc(-c2ccc(CCN3CCCCC3)cc2)cc1  Histamine H3 receptor (Homo sapiens)     8.82
 8    CCN(CC)Cc1ccc(-c2ccc(CN3CCCCC3)cc2)cc1  Histamine H3 receptor (Homo sapiens)      8.9
 9  c1cc(-c2ccc(CN3CCCCC3)cc2)ccc1CCN1CCCCC1  Histamine H3 receptor (Homo sapiens)     9.28
10  CC1CCN(Cc2ccc(-c3ccc(CN4CCC(C)CC4)cc3)cc2)CC1  Histamine H3 receptor (Homo sapiens)     7.68

Next, consider the following compound.
Measured pKb, CN(Cc1ccccc1)Cc1ccc(-c2ccc(CN3CCCCC3)cc2)cc1 : 7.98

----------
target: Histamine H3 receptor (Cavia porcellus); experiment: Antagonist activity at histamine H3 receptor in electrically-stimulated guinea pig ileum assessed as inhibition of (R)-alpha-methylhistamine-induced twitch contraction in presence of 1 uM mepyramine; assay type: functional, tissue-based
Parameter pKb: see the listing below.
Answer using only a numeral; do not append any unit.

Entry c1cc(-c2ccc(CN3CCCCC3)cc2)ccc1CNC1CCCCC1 , pKb reported as 7.59

----------
molecular target: Histamine H1 receptor (Cavia porcellus) (UniProt P31389); assay: Antagonist activity at histamine H1 receptor in guinea pig terminal ileum; type: functional, tissue-based
Sequence (P31389 whole entry): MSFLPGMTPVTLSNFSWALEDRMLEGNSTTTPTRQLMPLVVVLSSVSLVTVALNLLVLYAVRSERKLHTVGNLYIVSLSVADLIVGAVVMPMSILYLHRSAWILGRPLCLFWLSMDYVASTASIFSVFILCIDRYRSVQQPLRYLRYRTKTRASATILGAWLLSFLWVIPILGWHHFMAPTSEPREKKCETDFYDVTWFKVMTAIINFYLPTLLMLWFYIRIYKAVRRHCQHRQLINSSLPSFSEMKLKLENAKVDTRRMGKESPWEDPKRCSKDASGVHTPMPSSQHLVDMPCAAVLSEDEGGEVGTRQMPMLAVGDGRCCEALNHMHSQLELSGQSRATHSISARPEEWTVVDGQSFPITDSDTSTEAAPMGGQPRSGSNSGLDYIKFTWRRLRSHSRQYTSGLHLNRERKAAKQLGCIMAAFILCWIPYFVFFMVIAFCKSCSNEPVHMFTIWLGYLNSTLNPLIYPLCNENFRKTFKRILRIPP
Recorded measurements of pKb, one per entry

Use these answered entries as a reference point.
> print(dat)
                                   molecule                        measurement.target  reading
1  CCCN(CCC)Cc1ccc(-c2ccc(CC(=O)N3CCCCC3)cc2)cc1  Histamine H1 receptor (Cavia porcellus) (UniProt P31389)     5.44
2  CN(Cc1ccc(-c2ccc(CN3CCCCC3)cc2)cc1)C1CCCCC1  Histamine H1 receptor (Cavia porcellus) (UniProt P31389)     5.56
3  CC1CC(C)CN(Cc2ccc(-c3ccc(CN4CCCCC4)cc3)cc2)C1 (stereo unspecified)  Histamine H1 receptor (Cavia porcellus) (UniProt P31389)     6.15
4  CCCN(CCC)Cc1ccc(-c2ccc(CN3CCCCC3)cc2)cc1  Histamine H1 receptor (Cavia porcellus) (UniProt P31389)     5.48
5  c1cc(-c2ccc(CCN3CCCCC3)cc2)ccc1CCN1CCCCC1  Histamine H1 receptor (Cavia porcellus) (UniProt P31389)     5.32

Note to self: pKb recorded for CC1CCN(Cc2ccc(-c3ccc(CN4CCC(C)CC4)cc3)cc2)CC1 was 5.89
